# ASSAY TARGET: T1, hTra2-β RRM (Homo sapiens, UniProt P62995 110-201)
# T1 sequence: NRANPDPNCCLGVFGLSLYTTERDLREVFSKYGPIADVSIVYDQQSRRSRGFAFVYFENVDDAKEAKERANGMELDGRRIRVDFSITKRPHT
# PROTOCOL: ITC
REPORTED PROPERTY: Kd (µM)
Report as a plain number; the unit µM is understood.

Q: Look at this binder and give its reported Kd. UCAAU (ssRNA)
A: 47.8
